Source of measurements: PubChem BioAssay AID330

In this section we review reported T/C values for a set of compounds.
# Tested on: P388 leukemia ip, CD2F1 mice, survival T/C
# PROTOCOL_DESCRIPTION: NCI In Vivo Anticancer Drug Screen. Data for tumor model P388 Leukemia (intraperitoneal) in CD2F1 (CDF1) mice
# CONDITION_INFO: endpoint: median survival time; dose: 50.0 mg/kg/injection; schedule: Q04DX003 (ip); vehicle: saline with Tween-80; higher = longer survival
Toxic doses and inconclusive results are not listed.

{"STRUCTURE_NOTATION": "O=C(O)c1cc(Br)ccc1OCc1cccc(Cl)c1", "SYSTEM_NAME": "P388 leukemia ip, CD2F1 mice, survival T/C", "T/C": "98 % of control"}
{"STRUCTURE_NOTATION": "ClCc1ccc(Cl)c(Cl)c1Cl", "SYSTEM_NAME": "P388 leukemia ip, CD2F1 mice, survival T/C", "T/C": "100 % of control"}
{"STRUCTURE_NOTATION": "O=C1OC2(CCCC2)OC(=O)C1=C/C=C/c1ccc([N+](=O)[O-])o1", "SYSTEM_NAME": "P388 leukemia ip, CD2F1 mice, survival T/C", "T/C": "99 % of control"}

----------
In this section we review reported T/C values for a set of compounds.
# Test system: P388 leukemia ip, CD2F1 mice, survival T/C
# PROTOCOL_DESCRIPTION: NCI In Vivo Anticancer Drug Screen. Data for tumor model P388 Leukemia (intraperitoneal) in CD2F1 (CDF1) mice
# CONDITION_INFO: endpoint: median survival time; dose: 100.0 mg/kg/injection; schedule: Q01DX005 (ip); vehicle: saline with Tween-80; higher = longer survival
Toxic doses and inconclusive results are not listed.

{"COMPOUND": "O=C(Nc1cccc2c1C(=O)c1c(NC(=O)c3ccccc3)ccc(Nc3cccc4c3C(=O)c3ccccc3C4=O)c1C2=O)c1ccccc1", "SYSTEM_NAME": "P388 leukemia ip, CD2F1 mice, survival T/C", "T/C": "103 % of control"}
{"COMPOUND": "COC(=O)c1cc(=O)nc(NN)s1", "SYSTEM_NAME": "P388 leukemia ip, CD2F1 mice, survival T/C", "T/C": "90 % of control"}
{"COMPOUND": "CN1CC[C@@H](c2ccccc2)[C@@H](O)C1", "SYSTEM_NAME": "P388 leukemia ip, CD2F1 mice, survival T/C", "T/C": "100 % of control"}
{"COMPOUND": "CCOC(=O)C1=C(/C=C/c2cccc(Cl)c2)O/C(=C/c2cccc(Cl)c2)C1=O", "SYSTEM_NAME": "P388 leukemia ip, CD2F1 mice, survival T/C", "T/C": "96 % of control"}
{"COMPOUND": "O/N=C/c1cccc(O)c1O", "SYSTEM_NAME": "P388 leukemia ip, CD2F1 mice, survival T/C", "T/C": "107 % of control"}
{"COMPOUND": "CCC1(O)CC(c2ccccc2)N(C)C(c2ccccc2)C1 (stereo unspecified)", "SYSTEM_NAME": "P388 leukemia ip, CD2F1 mice, survival T/C", "T/C": "95 % of control"}
{"COMPOUND": "CN1[C@H]2CC[C@@H]1[C@@H](O)CC2", "SYSTEM_NAME": "P388 leukemia ip, CD2F1 mice, survival T/C", "T/C": "91 % of control"}
{"COMPOUND": "CCCC(N)C(=O)NC(Cc1c[nH]c2ccccc12)C(=O)O (stereo unspecified)", "SYSTEM_NAME": "P388 leukemia ip, CD2F1 mice, survival T/C", "T/C": "102 % of control"}
{"COMPOUND": "[O-][n+]1c(C2=C(N3CCCC3)c3ccccc3C2)c(Cl)c(Cl)c(Cl)c1C1=C(N2CCCC2)c2ccccc2C1", "SYSTEM_NAME": "P388 leukemia ip, CD2F1 mice, survival T/C", "T/C": "93 % of control"}
{"COMPOUND": "CCCOc1cc2c(cc1C(C)(C)c1ccccc1)OCO2", "SYSTEM_NAME": "P388 leukemia ip, CD2F1 mice, survival T/C", "T/C": "100 % of control"}
{"COMPOUND": "O=CNC(Cc1ccccc1)C(=O)O (stereo unspecified)", "SYSTEM_NAME": "P388 leukemia ip, CD2F1 mice, survival T/C", "T/C": "102 % of control"}
